Provide the recorded Papp B→A for the entries that follow.
# TEST_SUMMARY: Permeability across basal to apical side in human Caco-2 cells measured at 0.5 to 2 hrs by LC-MS analysis
# Format: ADME, cell-based
# RECORDED_CONDITIONS: time 0.5-2 hrs, read-out: permeability
Non-standard residues stand in square brackets, D forms with d. Residues, ends and D or L forms follow the SMILES beside them. NMeL = CN[C@@H](CC(C)C)C(=O)O; NMeV = CN[C@H](C(=O)O)C(C)C; Nva = CCC[C@H](N)C(=O)O; Sar = CNCC(=O)O
Your answer is read as ×10⁻⁶ cm/s, so omit the unit and give the number.

IN: Recorded Papp B→A of CCC[C@@H]1NC(=O)[C@H](CC(C)C)N(C)C(=O)[C@H](C(C)C)N(C)C(=O)[C@H](CC(C)C)N(C)C(=O)[C@H](CC(C)C)N(C)C(=O)[C@@H](C)NC(=O)[C@H](C)NC(=O)[C@H](CC(C)C)N(C)C(=O)[C@H](C(C)C)NC(=O)[C@H](CC(C)C)N(C)C(=O)CN(C)C1=O (cyclo(A[dA][NMeL][NMeL][NMeV][NMeL][Nva][Sar][NMeL]V[NMeL])) , please.
OUT: 2.88

IN: Entry `CCC[C@@H]1NC(=O)[C@H](CC(C)C)N(C)C(=O)[C@H](CC(C)C)N(C)C(=O)[C@H](CC(C)C)N(C)C(=O)[C@H](CC(C)C)N(C)C(=O)[C@@H](C)NC(=O)[C@H](C)NC(=O)[C@H](CC(C)C)N(C)C(=O)[C@H](C(C)C)NC(=O)[C@H](CC(C)C)N(C)C(=O)CN(C)C1=O` has what Papp B→A?
OUT: 0.61

IN: Which Papp B→A value belongs to CCC[C@@H]1NC(=O)[C@H](CC(C)C)N(C)C(=O)[C@H](CC(C)C)N(C)C(=O)[C@H](CC(C)C)N(C)C(=O)[C@H](CC(C)C)N(C)C(=O)[C@@H](C)NC(=O)[C@H](CCC(N)=O)NC(=O)[C@H](CC(C)C)N(C)C(=O)[C@H](C(C)C)NC(=O)[C@H](CC(C)C)N(C)C(=O)CN(C)C1=O (cyclo([NMeL][NMeL][NMeL][NMeL][Nva][Sar][NMeL]V[NMeL]Q[dA])) ?
OUT: 8.6

IN: Request the reported Papp B→A associated with `CCC[C@@H]1NC(=O)[C@H](CC(C)C)N(C)C(=O)[C@H](C(C)C)N(C)C(=O)[C@H](CC(C)C)N(C)C(=O)[C@H](CC(C)C)N(C)C(=O)[C@@H](C)NC(=O)[C@H](CCC(N)=O)NC(=O)[C@H](CC(C)C)N(C)C(=O)[C@H](C(C)C)NC(=O)[C@H](CC(C)C)N(C)C(=O)CN(C)C1=O`
OUT: 5.17

###

# TEST_SUMMARY: Tmax in ICR mouse at 20 mg/kg, po measured after 0.25 to 24 hrs by LC-MS/MS analysis
# Format: ADME, organism-based
# RECORDED_CONDITIONS: in vivo, time 0.25-24 hrs
Non-standard residues stand in square brackets, D forms with d. Residues, ends and D or L forms follow the SMILES beside them. NMeL = CN[C@@H](CC(C)C)C(=O)O; NMeV = CN[C@H](C(=O)O)C(C)C; Nva = CCC[C@H](N)C(=O)O; Sar = CNCC(=O)O
MEASURE: Tmax (min)
Write the number in min without appending the unit.

IN: Would you kindly share the measured Tmax for CCC[C@@H]1NC(=O)[C@H](CC(C)C)N(C)C(=O)[C@H](C(C)C)N(C)C(=O)[C@H](CC(C)C)N(C)C(=O)[C@H](CC(C)C)N(C)C(=O)[C@@H](C)NC(=O)[C@H](C)NC(=O)[C@H](CC(C)C)N(C)C(=O)[C@H](C(C)C)NC(=O)[C@H](CC(C)C)N(C)C(=O)CN(C)C1=O (cyclo(A[dA][NMeL][NMeL][NMeV][NMeL][Nva][Sar][NMeL]V[NMeL])) ?
OUT: 48

###

# TEST_SUMMARY: Cmax in ICR mouse at 20 mg/kg, po measured after 0.25 to 24 hrs by LC-MS/MS analysis
# Assay type: ADME, organism-based
# Design: time upper 24 hrs, time lower 0.25 hrs, dose 20 mg/kg, route po
# RECORDED_CONDITIONS: in vivo
Non-standard residues stand in square brackets, D forms with d. Residues, ends and D or L forms follow the SMILES beside them. NMeL = CN[C@@H](CC(C)C)C(=O)O; NMeV = CN[C@H](C(=O)O)C(C)C; Nva = CCC[C@H](N)C(=O)O; Sar = CNCC(=O)O
MEASURE: Cmax (ng/mL)
Note: unit ng/mL is implicit; provide only the numeric part.

IN: Entry CCC[C@@H]1NC(=O)[C@H](CC(C)C)N(C)C(=O)[C@H](C(C)C)N(C)C(=O)[C@H](CC(C)C)N(C)C(=O)[C@H](CC(C)C)N(C)C(=O)[C@@H](C)NC(=O)[C@H](C)NC(=O)[C@H](CC(C)C)N(C)C(=O)[C@H](C(C)C)NC(=O)[C@H](CC(C)C)N(C)C(=O)CN(C)C1=O (cyclo(A[dA][NMeL][NMeL][NMeV][NMeL][Nva][Sar][NMeL]V[NMeL])) has what Cmax?
OUT: 1600

###

# TEST_SUMMARY: Half life in ICR mouse at 5 mg/kg, iv measured after 0.08 to 24 hrs by LC-MS/MS analysis
# RECORDED_CONDITIONS: in vivo
Non-standard residues stand in square brackets, D forms with d. Residues, ends and D or L forms follow the SMILES beside them. NMeL = CN[C@@H](CC(C)C)C(=O)O; NMeV = CN[C@H](C(=O)O)C(C)C; Nva = CCC[C@H](N)C(=O)O; Sar = CNCC(=O)O
MEASURE: half-life (h)
Quick note: give the figure in h, leave out the unit.

IN: Could you share which half-life value was measured for CCC[C@@H]1NC(=O)[C@H](CC(C)C)N(C)C(=O)[C@H](C(C)C)N(C)C(=O)[C@H](CC(C)C)N(C)C(=O)[C@H](CC(C)C)N(C)C(=O)[C@@H](C)NC(=O)[C@H](C)NC(=O)[C@H](CC(C)C)N(C)C(=O)[C@H](C(C)C)NC(=O)[C@H](CC(C)C)N(C)C(=O)CN(C)C1=O (cyclo(A[dA][NMeL][NMeL][NMeV][NMeL][Nva][Sar][NMeL]V[NMeL])) ?
OUT: 4.8

Data provenance is ChEMBL document CHEMBL5149989.
